Just for reference, patent US6251899A is where these values come from.

assay-notes: logP by HPLC (EEC Directive 79/831 Annex V. A8, gradient method, acetonitrile/0.1% aqueous phosphoric acid)
Type: physicochemical
experimental-endpoint: chromatographic logP

>>> df
                         chemical_structure  experimental_endpoint  observed_measurement
0  CON=C(C1=NOCCN1)c1ccccc1Oc1ncnc(Oc2cccc(C(F)(F)F)c2)c1F   chromatographic logP                  3.39
1  CON=C(C1=NOCCN1)c1ccccc1Oc1ncnc(Oc2ccc(C)nc2)c1F   chromatographic logP                  1.58
2  CON=C(C1=NOCCN1)c1ccccc1Oc1ncnc(Oc2c(C)cccc2C)c1F   chromatographic logP                  3.29

a. CON=C(C1=NOCCN1)c1ccccc1Oc1ncnc(Oc2ccc(C)cc2C)c1F
b. CON=C(C1=NOCCN1)c1ccccc1Oc1ncnc(Oc2cccnc2)c1F
Rank a against b by their chromatographic logP values and give the higher one. # respond with the chosen item's label
a
(a: 3.38, b: 1.73)

###

assay-notes: logP by HPLC (EEC Directive 79/831 Annex V. A8, gradient method, acetonitrile/0.1% aqueous phosphoric acid)
Type: physicochemical
experimental-endpoint: chromatographic logP

Completed entries (count: 3):
                         chemical_structure  experimental_endpoint  observed_measurement
0       CON=C1C(=NOCCOS(C)(=O)=O)Oc2ccccc21   chromatographic logP                  2.39
1  CON=C(C1=NOCCN1)c1ccccc1Oc1ncnc(Oc2ccc(Cl)cc2)c1F   chromatographic logP                  3.23
2  CON=C(C1=NOCCN1)c1ccccc1Oc1ncnc(Oc2cccc(C)c2C)c1F   chromatographic logP                  3.29

P. CCSc1ccccc1Oc1ncnc(Oc2ccccc2C(=NOC)C2=NOCCN2)c1F
Q. CON=C1C(=NOCCO)Oc2ccccc21
Please state the entry with greater chromatographic logP among P and Q . Kindly state the label of the option you pick.
P

###

assay-notes: logP by HPLC (EEC Directive 79/831 Annex V. A8, gradient method, acetonitrile/0.1% aqueous phosphoric acid)
Format: physicochemical
experimental-endpoint: chromatographic logP

                         chemical_structure  observed_measurement
0  COCc1ccccc1Oc1ncnc(Oc2ccccc2C(=NOC)C2=NOCCN2)c1F                  2.74
1  CON=C(C1=NOCCN1)c1ccccc1Oc1ncnc(Oc2ccccc2C(C)(C)C)c1F                  3.84
2  CON=C(C1=NOCCN1)c1ccccc1Oc1ncnc(Sc2ccc(C)cc2)c1F                  3.45
3  CON=C(C1=NOCCN1)c1ccccc1Oc1ncnc(Sc2cccc(Cl)c2)c1F                  3.56
4  CON=C(C1=NOCCN1)c1ccccc1Oc1ncnc(SCc2ccccc2)c1F                  3.42

###

assay-notes: logP by HPLC (EEC Directive 79/831 Annex V. A8, gradient method, acetonitrile/0.1% aqueous phosphoric acid)
Assay type: physicochemical
experimental-endpoint: chromatographic logP

In [3]: df
Out[3]:
                                   compound  experimental_endpoint  observed_measurement
0  CON=C(C1=NOCCN1)c1ccccc1Oc1ncnc(Oc2ccc(C)cc2)c1F [Example 21]   chromatographic logP                  3.08

I. CON=C(C1=NOCCN1)c1ccccc1Oc1ncnc(F)c1F [IV-1]
II. CON=C(C1=NOCCN1)c1ccccc1Oc1ncnc(Oc2ccccc2C2CCCC2)c1F [Example 17]
chromatographic logP comparison. Which is larger, I or II ? Give the label of your selection.
II
(II: 4.01, I: 1.97)
